B1: SAM and SH3 domain-containing protein 1, residues 630 to 700; numbered along this chain, O94885 (parent)
chain: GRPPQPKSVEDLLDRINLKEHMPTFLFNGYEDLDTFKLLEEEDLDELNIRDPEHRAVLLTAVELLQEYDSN

# Variants of: B1
# Method: abundance fitness (aPCA) (normalised: wild type 0, dead -1); higher = more abundant; growth selection in yeast, the domain comes from the species named
# Particulars: Homo sapiens
Assign abundance fitness to each entry below.
Answers are plain numbers.

Sample answers from the record:
F36W : -0.712
E40V : -0.088
L38S : -0.005
L39V : -0.422

I would be grateful if you could provide abundance fitness for each of the following entries.
1. T35D
2. D14V
3. T24W
4. L65W
5. S8Y

Response:
1. 0.108
2. -0.287
3. -0.892
4. -0.959
5. -0.899

I would be grateful if you could provide abundance fitness for each of the following entries.
1. D45I
2. L38Q

Response:
1: 0.037; 2: 0.175
